# credit: ChEMBL document CHEMBL1201862

For each record, write down the corresponding GI50.
System: SF-295
Experiment: NCI tumour cell line growth inhibition, 48 h
Calls of active or inactive are those of the source. No stated cut-off is given here; in the data, active = GI50 up to about 1.1 µM and inactive = higher.

Measured GI50, CC(/C=C/c1ccc([N+](=O)[O-])o1)=N/N1CC(CN2CCOCC2)OC1=O (configuration not stated) : 86.1 µM (inactive)

Measured GI50, COc1ccc(-c2ccccc2)c(N/N=C2\CCCNC2=O)c1 : > 100 µM (inactive)

Measured GI50, CC1=NN(c2cccc(Cl)c2)C(=N/c2nc3ccccc3s2)/C1=C\c1cccs1 : 25.3 µM (inactive)

Measured GI50, CO/C(=C/C(=O)C(Cl)(Cl)Cl)CC/C(=C\C(=O)C(Cl)(Cl)Cl)OC : 36.3 µM (inactive)

Measured GI50, C[C@@H]1S[C@H](c2c(Cl)cccc2Cl)N2Cc3ccccc3N=C12 : > 100 µM (inactive)

Measured GI50, C1CN(P2(N3CC3)=NP(N3CC3)(N3CC3)=NP(N3CC3)(N3CC3)=N2)CCO1 (configuration not stated) : 54.7 µM (inactive)

Measured GI50, N#CCCC1(CCC#N)CCCCCCC(CCC#N)(CCC#N)C(=O)C1=O : > 100 µM (inactive)

----------
Tested on: SW-620
Experiment: NCI tumour cell line growth inhibition, 48 h
The source made the active and inactive calls. Rule as the data show it: active = GI50 up to about 1.1 µM and inactive = higher.
For each record, write down the corresponding GI50.

The compound CCc1nc(N)nc(N)c1-c1ccc(Cl)c(/N=N/N(C)C)c1 on SW-620: GI50 was 27.4 µM (inactive)

The compound O=S(=O)(O)c1cc(S(=O)(=O)O)c2c(/N=N/c3ccc(/N=N/c4ccccc4)cc3)c(O)ccc2c1 on SW-620: GI50 was > 100 µM (inactive)

The compound CC1OC(=O)C2CC3CCCCC3C(/C=C/C3CCCC(C)N3C)C12 (configuration not stated) on SW-620: GI50 was > 100 µM (inactive)

The compound O=C(CCc1nnc2s/c(=C\c3ccccc3Cl)c(=O)n12)Nc1cc(Cl)ccc1Cl on SW-620: GI50 was > 100 µM (inactive)

The compound COC(=O)c1ccc2cc(O)c(O)cc2c1 on SW-620: GI50 was 51.4 µM (inactive)

The compound N#C/C(=C/C=C/c1ccco1)C(N)=O on SW-620: GI50 was > 10 µM (inactive)

The compound COc1ccc2c(c1)CN1C(=N2)CSC1c1cccc(Br)c1 (configuration not stated) on SW-620: GI50 was 15.8 µM (inactive)

----------
Test system: SF-268
Experiment: NCI tumour cell line growth inhibition, 48 h
Active and inactive are the calls of the source. Cut-off read from the data, not from the text of the source: active = GI50 up to about 1.1 µM and inactive = higher.
Give one outcome, nothing more. List: active, inactive

Query :: Which outcome was entered for the molecule Cc1ccc(-n2c(O)c(C#N)c3[nH]nc(N)c3c2=O)cc1 in this test?
Result :: inactive

Query :: Which outcome was entered for the molecule O=[N+]([O-])c1nccn1COCCF in this test?
Result :: inactive

Query :: Which outcome was entered for the molecule Cc1ccc(S(=O)(=O)N2C[C@@H]3CC[C@]4(CO[Si](C)(C)C(C)(C)C)N[C@@H](c5ccccc5)[C@H]2[C@H]34)cc1 in this test?
Result :: inactive

Query :: Which outcome was entered for the molecule C=C(C[C@@H](O)[C@H](C)NC(=O)OCc1ccccc1)C(=O)OC(C)(C)C in this test?
Result :: inactive

Query :: Which outcome was entered for the molecule O=C1c2cc([N+](=O)[O-])cc3cc([N+](=O)[O-])cc(c23)C(=O)N1CCCNCCNCCCN1C(=O)c2cc([N+](=O)[O-])cc3cc([N+](=O)[O-])cc(c23)C1=O in this test?
Result :: active

Query :: Which outcome was entered for the molecule O=C(CCCc1ccccn1)c1ccccc1 in this test?
Result :: inactive

Query :: Which outcome was entered for the molecule COc1c(F)c(F)c(C(=O)/C=C2\Nc3ccccc3NC2=O)c(F)c1F in this test?
Result :: inactive

Query :: Which outcome was entered for the molecule CCOC(=O)c1csc(CCCCCCc2nc(C(=O)OCC)cs2)n1 in this test?
Result :: inactive

Query :: Which outcome was entered for the molecule Cc1ccc([S+]([O-])c2sccc2C=O)cc1 (configuration not stated) in this test?
Result :: inactive

Query :: Which outcome was entered for the molecule COc1ccc(-c2cc(-c3cc(Cl)cc(Br)c3O)nc(O)n2)cc1 in this test?
Result :: inactive

Query :: Which outcome was entered for the molecule Cc1ccccc1/C=C/c1csnn1 in this test?
Result :: inactive

Query :: Which outcome was entered for the molecule Cc1cc2nc(O)c(CCC(=O)O)nc2cc1C in this test?
Result :: inactive

Query :: Which outcome was entered for the molecule COC1C(=O)CCC2(CO2)C1(O)C1(C)OC1CC=C(C)C (configuration not stated) in this test?
Result :: inactive

Query :: Which outcome was entered for the molecule CC1=CC(=O)C(C)(C2=NC(C)(C)CO2)c2ccccc21 (configuration not stated) in this test?
Result :: inactive

Query :: Which outcome was entered for the molecule CC1=NOC(=O)/C1=C/c1ccc([N+](=O)[O-])cc1 in this test?
Result :: inactive

Query :: Which outcome was entered for the molecule N=c1oc2ccc(Cl)cc2cc1C(=O)NC1CCCCC1 in this test?
Result :: inactive

Query :: Which outcome was entered for the molecule COc1cc(/C=N/c2ccc(Oc3ccc(Cl)cc3)c(Cl)c2)cc(OC)c1OC in this test?
Result :: inactive
